Biological target: human ether-à-go-go-related gene (hERG) potassium channel (human, UniProt Q12809);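 further: peak tail current of the secondary pulse compared with the same well before compound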
Sequence (Q12809 whole entry, looked up): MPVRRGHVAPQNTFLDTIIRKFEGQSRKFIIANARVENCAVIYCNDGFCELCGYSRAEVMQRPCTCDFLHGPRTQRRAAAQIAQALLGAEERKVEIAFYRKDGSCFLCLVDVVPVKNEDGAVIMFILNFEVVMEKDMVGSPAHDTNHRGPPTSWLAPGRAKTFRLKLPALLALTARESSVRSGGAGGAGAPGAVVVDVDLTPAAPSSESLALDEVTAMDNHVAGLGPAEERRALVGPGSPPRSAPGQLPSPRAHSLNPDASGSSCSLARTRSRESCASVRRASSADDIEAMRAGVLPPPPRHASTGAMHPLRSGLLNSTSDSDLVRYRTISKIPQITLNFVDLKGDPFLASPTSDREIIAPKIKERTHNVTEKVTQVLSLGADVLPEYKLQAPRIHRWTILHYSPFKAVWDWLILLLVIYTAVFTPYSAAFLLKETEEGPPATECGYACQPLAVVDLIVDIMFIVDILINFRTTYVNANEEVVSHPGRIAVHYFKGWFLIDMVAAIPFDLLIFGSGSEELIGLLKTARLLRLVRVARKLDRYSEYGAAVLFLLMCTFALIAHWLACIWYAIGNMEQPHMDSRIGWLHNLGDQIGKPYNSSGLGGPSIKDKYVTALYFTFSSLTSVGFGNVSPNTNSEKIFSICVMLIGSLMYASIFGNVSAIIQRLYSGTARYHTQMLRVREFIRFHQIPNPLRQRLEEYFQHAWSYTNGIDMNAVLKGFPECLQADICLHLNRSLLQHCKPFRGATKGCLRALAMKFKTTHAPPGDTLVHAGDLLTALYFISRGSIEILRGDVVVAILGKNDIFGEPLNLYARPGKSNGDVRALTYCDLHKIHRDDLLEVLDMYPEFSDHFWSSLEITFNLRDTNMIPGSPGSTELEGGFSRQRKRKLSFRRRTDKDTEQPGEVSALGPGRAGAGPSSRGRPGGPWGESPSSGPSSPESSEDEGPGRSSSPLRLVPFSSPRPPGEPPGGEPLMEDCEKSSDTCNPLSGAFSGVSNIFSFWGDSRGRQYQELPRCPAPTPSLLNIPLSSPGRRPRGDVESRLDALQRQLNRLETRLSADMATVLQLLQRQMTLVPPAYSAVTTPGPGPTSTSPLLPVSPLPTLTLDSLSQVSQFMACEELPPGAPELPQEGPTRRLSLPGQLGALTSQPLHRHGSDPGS
Assay: primary screen, population patch clamp on CHO cells stably expressing hERG; higher = less effect of the substance
Experimental: Briefly, Chinese hamster ovary (CHO) cells stably expressing the hERG channel were dislodged from tissue culture flasks and dispensed into PPC plates. […] During the recording, background leak currents were estimated by a 100 ms step to -80 mV from an initial holding potential of -70 mV and subtracted from the subsequent current measurement. The campaign was conducted in two phases using slight differences in recording protocol. […]
The whole screen tested about 310,000 compounds, of which about 14,000 (4.5%) showed an effect of 50% or more. The effect is printed as a negative number. The full list was thinned out, with strong results kept by preference.
hERG current change (%, negative = inhibition) at 10uM reference
Report only the number, with the unit % understood.

[in] Recorded hERG current change (%, negative = inhibition) at 10uM for O=C(Cc1coc(-c2ccc(F)cc2)n1)Nc1ccccc1 with human ether-à-go-go-related gene (hERG) potassium channel (human, UniProt Q12809), please?
[out] -15.4

[in] Observed hERG current change (%, negative = inhibition) at 10uM on human ether-à-go-go-related gene (hERG) potassium channel (human, UniProt Q12809) for Cc1ccc(C)n1CCN1CCN(C(=O)CSc2nc3ccccc3nc2N2CCOCC2)CC1 , please.
[out] -54.5

[in] Enter reported hERG current change (%, negative = inhibition) at 10uM observed with human ether-à-go-go-related gene (hERG) potassium channel (human, UniProt Q12809) for Cc1nn(CCCC(=O)N2CCN(c3ccc(F)cc3)CC2)c(C)c1[N+](=O)[O-]
[out] -62.1

[in] Return hERG current change (%, negative = inhibition) at 10uM measured with human ether-à-go-go-related gene (hERG) potassium channel (human, UniProt Q12809) given this compound: Cc1ccc(-n2c(SCC(=O)N3CC(=O)Nc4ccccc43)nc3ccccc3c2=O)cc1
[out] -1.05

[in] # get_value(readout= hERG current change (%, negative = inhibition) at 10uM, system= human ether-à-go-go-related gene (hERG) potassium channel (human, UniProt Q12809)) for Cc1c(Cl)c([N+](=O)[O-])nn1CCCC(=O)N1CCN(c2ccccc2)CC1;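 further: peak tail current of the secondary pulse compared with the same well before compound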
[out] -58

[in] Any idea what hERG current change (%, negative = inhibition) at 10uM came out for CCCn1c(SC(C)C(=O)N2CCOCC2)nc2ccc(Br)cc2c1=O (stereo not drawn) on human ether-à-go-go-related gene (hERG) potassium channel (human, UniProt Q12809)?
[out] -56.1

[in] Recall the recorded hERG current change (%, negative = inhibition) at 10uM for CCc1ccccc1NC(=O)CC(NCc1ccccc1)C(=O)O (stereo not drawn) with human ether-à-go-go-related gene (hERG) potassium channel (human, UniProt Q12809) and state it.
[out] 22.5

[in] I'm curious: which hERG current change (%, negative = inhibition) at 10uM was measured for CCOCCCNC(=S)N(CCN(CC)CC)Cc1cc2cc3c(cc2[nH]c1=O)OCCO3 tested on human ether-à-go-go-related gene (hERG) potassium channel (human, UniProt Q12809)?;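 further: peak tail current of the secondary pulse compared with the same well before compound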
[out] 7.75

[in] What hERG current change (%, negative = inhibition) at 10uM appears in the records for this compound with human ether-à-go-go-related gene (hERG) potassium channel (human, UniProt Q12809)? Cc1cc(C)n2c(Br)c(CSc3nc4ccccc4o3)nc2n1
[out] -63.9

[in] Request - read-out hERG current change (%, negative = inhibition) at 10uM | tested on human ether-à-go-go-related gene (hERG) potassium channel (human, UniProt Q12809) | compound Cc1cc([N+](=O)[O-])nn1CCCC(=O)NCc1ccc(F)cc1;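 further: peak tail current of the secondary pulse compared with the same well before compound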
[out] -0.962

[in] What is its hERG current change (%, negative = inhibition) at 10uM for human ether-à-go-go-related gene (hERG) potassium channel (human, UniProt Q12809)? Entry: CCCn1c(SCC(=O)N2CCN(c3ccccc3)CC2)nc2ccccc2c1=O
[out] -56.7

[in] So what hERG current change (%, negative = inhibition) at 10uM did Cc1c(Cl)c([N+](=O)[O-])nn1CCCC(=O)O get with human ether-à-go-go-related gene (hERG) potassium channel (human, UniProt Q12809)?
[out] 9.17
